Data origin: the nanobody polyreactivity screen of Harvey et al. (2022)

method_summary: yeast display, Sf9 membrane polyspecificity reagent, FACS + sequencing; frameworks hold sequencing errors

| item_sequence | polyreactivity (PSR sort gate) |
| --- | --- |
| QVQLVESGGGLVQAGGSLRLSCAASGFIIDGYAMGWYRQAPGKERELVAVISQRGSNTYYADSVKGRFTISRDNAKNTVYLQMNSLKPEDTAVYYCAARYKQGDSTGGRMNYWGQGTQVTVSS | high polyreactivity |
| QVQLVESGGGLVQAGGSLRLSCAASGGIIQGYSMVWYRQAPGKERELVAAISSSGGTTYYADSVKGRFTISRDNAKNTVYLQMNSLKPEDTAVYYCAAPTHSPYDYWGQGTQVTVSS | low polyreactivity |
| QVQLVESGGGLVQAGGSLRLSCAASGLIFYDNMGWYRQAPGKERELVAAISSSGGSTSYADSVKGRFTISRDNAKNTVYLQMISLKPEDTAVYYCAADSSPAFLGFVGFEYWGQGTEVTVSS | low polyreactivity |
| QVQLVESGGGLDQAGGSLRLSCAASGRIFDKYALGCYRHAPGKERELVAAISSSGGSTYYADSVKGRFTISRDNAKNTVYLQMNSLKTEDTAVYYCAKLVVVPFYYWGQGTQVTVSS | high polyreactivity |
| QVQLVESGGGLVQAGGSLRLSCAASGRTLQAYAMGWYRQAPGKERELVAAINSSGGTTYYADSVKGRFTISRDNAKNTVYLQMNSLKPEDTAVYYCAATYWYHGRYYWYAYDYWGQGTQVTVSS | high polyreactivity |
